studySystem: human CD33 Q133A (human, UniProt P20138 18-364)
Sequence (P20138 18-364 Q133A limits assumed): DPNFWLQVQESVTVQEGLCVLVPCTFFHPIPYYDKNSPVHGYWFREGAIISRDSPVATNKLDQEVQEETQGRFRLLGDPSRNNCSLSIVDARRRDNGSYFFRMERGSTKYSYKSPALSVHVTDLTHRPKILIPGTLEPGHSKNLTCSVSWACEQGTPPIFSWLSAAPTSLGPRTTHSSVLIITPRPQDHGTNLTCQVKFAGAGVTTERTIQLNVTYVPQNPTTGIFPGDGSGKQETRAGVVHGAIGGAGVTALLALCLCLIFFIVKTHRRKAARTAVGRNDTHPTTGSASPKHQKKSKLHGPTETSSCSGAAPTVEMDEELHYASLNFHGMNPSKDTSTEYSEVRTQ
testMethodNotes: flow cytometry on HEK293-T, alanine scan
measure: Mean % WT Binding (% WT binding)

binder: Refmab #1 (antibody, V domains shown, The alanine scan used IgG or Fab; also called hP67.6) VH: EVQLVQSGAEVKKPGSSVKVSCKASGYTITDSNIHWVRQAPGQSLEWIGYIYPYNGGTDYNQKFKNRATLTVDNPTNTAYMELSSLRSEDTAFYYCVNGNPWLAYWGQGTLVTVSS VL: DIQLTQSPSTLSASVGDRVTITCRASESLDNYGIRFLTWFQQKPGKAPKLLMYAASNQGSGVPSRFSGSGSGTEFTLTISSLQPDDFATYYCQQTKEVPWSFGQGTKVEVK
measure: Mean % WT Binding
resultNumber: 95.6

binder: Refmab #2 (antibody, V domains shown, The alanine scan used IgG or Fab) VH: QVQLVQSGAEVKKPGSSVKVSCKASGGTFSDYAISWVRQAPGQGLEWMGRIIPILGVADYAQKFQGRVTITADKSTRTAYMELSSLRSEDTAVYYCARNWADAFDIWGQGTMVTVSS VL: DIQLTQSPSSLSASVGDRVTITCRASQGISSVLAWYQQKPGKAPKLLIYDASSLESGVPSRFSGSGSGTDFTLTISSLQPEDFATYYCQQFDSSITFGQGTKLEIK
measure: Mean % WT Binding
resultNumber: 131

binder: Refmab #4 (antibody, V domains shown, The alanine scan used IgG or Fab) VH: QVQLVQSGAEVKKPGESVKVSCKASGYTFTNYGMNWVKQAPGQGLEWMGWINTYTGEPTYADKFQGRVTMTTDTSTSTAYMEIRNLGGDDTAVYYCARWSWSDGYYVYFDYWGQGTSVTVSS VL: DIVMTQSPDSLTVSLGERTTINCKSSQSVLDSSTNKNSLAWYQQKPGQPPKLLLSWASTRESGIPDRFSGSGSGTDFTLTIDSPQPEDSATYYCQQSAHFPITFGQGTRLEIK
measure: Mean % WT Binding
resultNumber: 96

binder: Refmab #3 (antibody, V domains shown, The alanine scan used IgG or Fab) VH: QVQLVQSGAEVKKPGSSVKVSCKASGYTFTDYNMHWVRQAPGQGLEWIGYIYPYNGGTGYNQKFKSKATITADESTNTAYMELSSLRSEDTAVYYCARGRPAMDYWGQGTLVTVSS VL: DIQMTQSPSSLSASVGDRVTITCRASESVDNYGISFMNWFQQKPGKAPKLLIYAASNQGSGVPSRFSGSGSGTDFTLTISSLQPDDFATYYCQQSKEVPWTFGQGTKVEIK
measure: Mean % WT Binding
resultNumber: 101
